# Experimental target: polypeptide HER2/ECD (human, UniProt P04626 23-646)
# Test protocol: ELISA, IgG on immobilized HER2/ECD
Exercise: for every item that follows, state its recorded EC50.
Report the figure in ng/mL without appending any unit label.

Enquiry: Give the reported EC50 for this binder. M63 (antibody) MAELDAVVTQESALTTSPGETVTLTCRSSTGTVTTSNYANWVQEKPDHLFTGLIGGTKNRAPGVPARFSGSLIGDKAALTITGAQTEDEAIYFCALWYSNHWVFGGGTKLTVLGSSGGGGSGGGGGGSSRSSLEVQLQQSGPELVRPGDSVKISCKASGYTFSDYAVHWVKRSHGKSLEWIGVISIYYDNINYNQNFKGKATMTVDKSSSTAYLELARLTSEDSAIYYCARRGFDYWGPGTTLTVSSAKTTAPSVTSAAA
Return: 2.4

Enquiry: # return recorded EC50 for entry M64 (antibody) MAELDIQMNQSHKFMSTSVGDRVSITCKASQDVSTAVAWYQQKPGQSPKLLIYWASTRHTGVPGRFTGSGSGADYTLTISSVQAEDLALYYCQQHYSTPYTFGGGTKLEIKSSGGGGSGGGGGGSSRSSLEVQLQQSGAELVKPGASVKLSCTASGFNIKNTYMHWVKQRPEQGLEWIGRIDPANGNTKYDPKLQGKATITADTSSNTAYLHLSSLTSEDTAVYYCVPYYRGAMDYWGQGTSVTVSSESQSFPNVTSAAAGAPVPYPDPLEPRAA
Return: 3.1
